Organism: Rattus norvegicus
Test: Inhibition of rat intestinal maltase using maltose as substrate assessed as release of D-glucose at 1000 uM measured by spectrometric assay
quantity: inhibition (%)

Known inhibition results, listed for orientation:
{"query_smiles": "CCCCCCCCCC[C@@]1(CO)NC[C@H](O)[C@@H](O)[C@@H]1O.Cl", "quantity": "inhibition", "quantitative_readout": 0}
{"query_smiles": "CCCCCC[C@@]1(CO)NC[C@H](O)[C@@H](O)[C@@H]1O.Cl", "quantity": "inhibition", "quantitative_readout": 11.6}
{"query_smiles": "CCCCCCCCCCC[C@@]1(CO)NC[C@H](O)[C@@H](O)[C@@H]1O.Cl", "quantity": "inhibition", "quantitative_readout": 4.6}
{"query_smiles": "CCCCCCCC[C@@]1(CO)NC[C@H](O)[C@@H](O)[C@@H]1O.Cl", "quantity": "inhibition", "quantitative_readout": 23.2}

1 = CCCCCCCCCCCC[C@@]1(CO)NC[C@H](O)[C@@H](O)[C@@H]1O.Cl
2 = CCC[C@@]1(CO)NC[C@H](O)[C@@H](O)[C@@H]1O.Cl
3 = CCCCC[C@@]1(CO)NC[C@H](O)[C@@H](O)[C@@H]1O.Cl
Q: Please order the records by their reported inhibition, lowest number first. Sort and list the labels as requested.
Result: 2, 1, 3
(2: 0%, 1: 2.3%, 3: 15.1%)

###

Assay: Inhibition of bovine liver beta-galactosidase using p-nitrophenyl glycoside as substrate assessed as release of p-nitrophenol measured by spectrometric assay
Format: tissue-based, Bos taurus
Details: read-out: IC50
quantity: IC50 (µM)

{"query_smiles": "CCCCCCCCC[C@]1(CO)NC[C@H](O)[C@@H](O)[C@@H]1O.Cl", "quantitative_readout": 68}
{"query_smiles": "CCCCCCCCCCC[C@@]1(CO)NC[C@H](O)[C@@H](O)[C@@H]1O.Cl", "quantitative_readout": 100}
{"query_smiles": "CCCC[C@@]1(CO)NC[C@H](O)[C@@H](O)[C@@H]1O.Cl", "quantitative_readout": 52}

1 = CCCCCCCCCCCC[C@@]1(CO)NC[C@H](O)[C@@H](O)[C@@H]1O.Cl
2 = CCCC[C@]1(CO)NC[C@H](O)[C@@H](O)[C@@H]1O.Cl
Q: Given the two records 1 and 2 , choose the one whose IC50 value is lower. Write the label of whichever entry you select.
Result: 1
(1: 17 µM, 2: 127 µM)

###

Target: Sucrase-isomaltase, intestinal (Rattus norvegicus)
Sequence (P23739 1-1013 limits assumed): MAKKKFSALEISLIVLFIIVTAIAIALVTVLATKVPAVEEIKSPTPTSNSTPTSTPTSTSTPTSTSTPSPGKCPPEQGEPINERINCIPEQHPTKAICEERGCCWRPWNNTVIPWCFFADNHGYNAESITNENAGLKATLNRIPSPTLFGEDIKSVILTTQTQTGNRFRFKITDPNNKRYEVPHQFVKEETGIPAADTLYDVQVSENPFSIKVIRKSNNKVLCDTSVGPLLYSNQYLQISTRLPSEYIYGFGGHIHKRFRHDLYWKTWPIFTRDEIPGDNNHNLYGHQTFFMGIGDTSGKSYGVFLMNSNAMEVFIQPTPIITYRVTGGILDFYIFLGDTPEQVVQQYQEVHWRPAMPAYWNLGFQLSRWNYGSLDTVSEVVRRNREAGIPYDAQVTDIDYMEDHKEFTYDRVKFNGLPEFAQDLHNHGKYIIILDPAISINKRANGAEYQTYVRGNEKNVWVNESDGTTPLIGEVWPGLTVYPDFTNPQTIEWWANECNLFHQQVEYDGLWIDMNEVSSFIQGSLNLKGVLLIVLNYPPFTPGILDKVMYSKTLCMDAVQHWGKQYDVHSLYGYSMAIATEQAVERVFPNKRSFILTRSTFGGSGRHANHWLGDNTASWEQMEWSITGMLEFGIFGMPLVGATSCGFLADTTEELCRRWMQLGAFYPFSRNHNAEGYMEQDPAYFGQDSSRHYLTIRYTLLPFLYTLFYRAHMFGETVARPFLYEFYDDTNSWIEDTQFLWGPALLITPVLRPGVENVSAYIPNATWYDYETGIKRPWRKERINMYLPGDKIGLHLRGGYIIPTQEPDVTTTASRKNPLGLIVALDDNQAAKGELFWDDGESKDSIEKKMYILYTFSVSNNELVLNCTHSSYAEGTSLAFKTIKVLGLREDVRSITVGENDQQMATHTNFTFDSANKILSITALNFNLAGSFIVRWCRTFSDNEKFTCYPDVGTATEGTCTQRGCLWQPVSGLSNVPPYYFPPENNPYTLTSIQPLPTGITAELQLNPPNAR
Sequence (P23739 1014-1841 limits assumed): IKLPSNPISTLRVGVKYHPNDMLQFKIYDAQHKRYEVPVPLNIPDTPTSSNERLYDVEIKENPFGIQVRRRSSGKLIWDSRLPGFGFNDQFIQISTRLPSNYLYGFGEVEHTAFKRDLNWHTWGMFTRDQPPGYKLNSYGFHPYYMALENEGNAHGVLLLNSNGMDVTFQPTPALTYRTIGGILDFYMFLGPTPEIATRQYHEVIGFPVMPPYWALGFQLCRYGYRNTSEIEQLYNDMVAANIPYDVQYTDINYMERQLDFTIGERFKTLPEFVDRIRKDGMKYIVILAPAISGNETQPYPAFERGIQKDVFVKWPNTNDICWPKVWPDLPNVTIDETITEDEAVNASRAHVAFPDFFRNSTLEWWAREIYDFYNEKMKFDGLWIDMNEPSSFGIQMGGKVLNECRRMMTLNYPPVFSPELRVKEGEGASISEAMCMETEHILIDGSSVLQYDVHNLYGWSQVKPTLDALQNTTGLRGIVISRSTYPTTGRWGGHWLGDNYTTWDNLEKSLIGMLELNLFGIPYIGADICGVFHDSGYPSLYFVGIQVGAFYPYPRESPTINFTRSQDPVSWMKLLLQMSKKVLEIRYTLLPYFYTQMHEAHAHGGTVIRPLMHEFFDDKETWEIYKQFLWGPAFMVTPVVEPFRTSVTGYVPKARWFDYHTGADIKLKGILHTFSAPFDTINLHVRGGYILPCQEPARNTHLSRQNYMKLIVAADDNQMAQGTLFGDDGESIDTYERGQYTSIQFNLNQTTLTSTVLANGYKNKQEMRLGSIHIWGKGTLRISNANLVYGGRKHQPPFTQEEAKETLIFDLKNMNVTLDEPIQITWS
Experiment: Inhibition of rat intestinal sucrase using p-nitrophenyl glycoside as substrate assessed as release of p-nitrophenol measured by spectrometric assay
Conditions: read-out: IC50
pIC50: −log10 of the molar value.
quantity: pIC50

Example results:
{"query_smiles": "CCCCCCCCC[C@@]1(CO)NC[C@H](O)[C@@H](O)[C@@H]1O.Cl", "pIC50": 4.38}
{"query_smiles": "CCCC[C@]1(CO)NC[C@H](O)[C@@H](O)[C@@H]1O.Cl", "pIC50": 6.25}
{"query_smiles": "CCC[C@@]1(CO)NC[C@H](O)[C@@H](O)[C@@H]1O.Cl", "pIC50": 4.03}
{"query_smiles": "CCCCC[C@]1(CO)NC[C@H](O)[C@@H](O)[C@@H]1O.Cl", "pIC50": 6.64}
{"query_smiles": "CCCCCCCCCCCC[C@]1(CO)NC[C@H](O)[C@@H](O)[C@@H]1O.Cl", "pIC50": 5.92}

I = CCCCCCCCCC[C@]1(CO)NC[C@H](O)[C@@H](O)[C@@H]1O.Cl
II = CCC[C@]1(CO)NC[C@H](O)[C@@H](O)[C@@H]1O.Cl
Q: Which has the higher pIC50, I or II ? Indicate your choice by writing its label.
Result: II

###

Species on record: Sus scrofa
Assay: Inhibition of porcine kidney alpha-trehalase using p-nitrophenyl glycoside as substrate assessed as release of p-nitrophenol at 1000 uM measured by spectrometric assay relative to control
quantity: inhibition (%)

{"query_smiles": "CCCCCCCCCC[C@@]1(CO)NC[C@H](O)[C@@H](O)[C@@H]1O.Cl", "unit": "%", "quantitative_readout": 3}
{"query_smiles": "CCCCCCCC[C@@]1(CO)NC[C@H](O)[C@@H](O)[C@@H]1O.Cl", "unit": "%", "quantitative_readout": 0}
{"query_smiles": "CCC[C@@]1(CO)NC[C@H](O)[C@@H](O)[C@@H]1O.Cl", "unit": "%", "quantitative_readout": 2.7}
{"query_smiles": "CCCCCCCCC[C@@]1(CO)NC[C@H](O)[C@@H](O)[C@@H]1O.Cl", "unit": "%", "quantitative_readout": 0}
{"query_smiles": "CCCCCC[C@]1(CO)NC[C@H](O)[C@@H](O)[C@@H]1O.Cl", "unit": "%", "quantitative_readout": 11.7}
{"query_smiles": "CCCCCCCC[C@]1(CO)NC[C@H](O)[C@@H](O)[C@@H]1O.Cl", "unit": "%", "quantitative_readout": 23}
{"query_smiles": "CCCCCC[C@@]1(CO)NC[C@H](O)[C@@H](O)[C@@H]1O.Cl", "unit": "%", "quantitative_readout": 3.4}
{"query_smiles": "CCCCCCC[C@@]1(CO)NC[C@H](O)[C@@H](O)[C@@H]1O.Cl", "unit": "%", "quantitative_readout": 4.2}

A = CCC[C@]1(CO)NC[C@H](O)[C@@H](O)[C@@H]1O.Cl
B = CCCCCCC[C@]1(CO)NC[C@H](O)[C@@H](O)[C@@H]1O.Cl
C = CCCCCCCCCCCC[C@@]1(CO)NC[C@H](O)[C@@H](O)[C@@H]1O.Cl
D = CCCCCCCCCCC[C@]1(CO)NC[C@H](O)[C@@H](O)[C@@H]1O.Cl
Q: // ranking: key=inhibition, reverse=True State the ranking by listing the labels in the requested order.
Result: D, B, A, C

###

Assay: Inhibition of rice alpha-glucosidase using p-nitrophenyl glycoside as substrate assessed as release of p-nitrophenol measured by spectrometric assay
Parameters: species or system Oryza sativa
Conditions: read-out: IC50
quantity: IC50 (µM)

Worked cases, IC50 given:
{"query_smiles": "CC[C@@]1(CO)NC[C@H](O)[C@@H](O)[C@@H]1O.Cl", "quantity": "IC50", "quantitative_readout": 14}
{"query_smiles": "CCCC[C@@]1(CO)NC[C@H](O)[C@@H](O)[C@@H]1O.Cl", "quantity": "IC50", "quantitative_readout": 85}
{"query_smiles": "C[C@@]1(CO)NC[C@H](O)[C@@H](O)[C@@H]1O.Cl", "quantity": "IC50", "quantitative_readout": 38}
{"query_smiles": "CCCCCCCC[C@]1(CO)NC[C@H](O)[C@@H](O)[C@@H]1O.Cl", "quantity": "IC50", "quantitative_readout": 0.029}
{"query_smiles": "CCC[C@]1(CO)NC[C@H](O)[C@@H](O)[C@@H]1O.Cl", "quantity": "IC50", "quantitative_readout": 0.088}

a = CCCCCCCCCC[C@]1(CO)NC[C@H](O)[C@@H](O)[C@@H]1O.Cl
b = CCC[C@@]1(CO)NC[C@H](O)[C@@H](O)[C@@H]1O.Cl
Q: Of a and b , which carries the smaller reported IC50 figure? When you have decided, please share the label of that item.
Result: a

I = CCCCCCCCCC[C@@]1(CO)NC[C@H](O)[C@@H](O)[C@@H]1O.Cl
II = CCCCCCCCCCC[C@]1(CO)NC[C@H](O)[C@@H](O)[C@@H]1O.Cl
Q: Of the two listed items, I and II , which carries the larger IC50 figure? // output: label of the selected item
Result: I

###

System: Penicillium decumbens
Assay: Inhibition of Penicillium decumbens alpha-L-rhamnosidase using p-nitrophenyl glycoside as substrate assessed as release of p-nitrophenol at 1000 uM measured by spectrometric assay relative to control
quantity: inhibition (%)

Reference set, count: 3
{"compound": "OC[C@H]1NC[C@H](O)[C@@H](O)[C@@H]1O [DUVOGLUSTAT]", "measurement_target": "Penicillium decumbens", "inhibition (%)": 45.6}
{"compound": "CC[C@]1(CO)NC[C@H](O)[C@@H](O)[C@@H]1O.Cl", "measurement_target": "Penicillium decumbens", "inhibition (%)": 0}
{"compound": "CCCCC[C@@]1(CO)NC[C@H](O)[C@@H](O)[C@@H]1O.Cl", "measurement_target": "Penicillium decumbens", "inhibition (%)": 0}

1 = CCCCCCCCCC[C@@]1(CO)NC[C@H](O)[C@@H](O)[C@@H]1O.Cl
2 = CCC[C@]1(CO)NC[C@H](O)[C@@H](O)[C@@H]1O.Cl
Q: Returns the identifier with the smallest measured inhibition among 1 and 2 . Mark your answer with the label of the selected entry.
Result: 1

###

Species: Bos taurus
Assay: Inhibition of bovine liver beta-glucosidase using p-nitrophenyl glycoside as substrate assessed as release of p-nitrophenol at 1000 uM measured by spectrometric assay relative to control
Type: tissue-based
quantity: inhibition (%)

{"query_smiles": "CCCCC[C@]1(CO)NC[C@H](O)[C@@H](O)[C@@H]1O.Cl", "quantity": "inhibition", "quantitative_readout": 8}
{"query_smiles": "CCC[C@@]1(CO)NC[C@H](O)[C@@H](O)[C@@H]1O.Cl", "quantity": "inhibition", "quantitative_readout": 9.1}

1 = CCCCC[C@@]1(CO)NC[C@H](O)[C@@H](O)[C@@H]1O.Cl
2 = CCCCCCCC[C@]1(CO)NC[C@H](O)[C@@H](O)[C@@H]1O.Cl
3 = CCCCCCCCCCC[C@@]1(CO)NC[C@H](O)[C@@H](O)[C@@H]1O.Cl
Q: Ordering criterion: inhibition; begin with the maximum. Returns: the labels arranged in the requested order.
Result: 3, 2, 1
(3: 29.8%, 2: 14.3%, 1: 9.2%)
